test: qHTS assay to identify small molecule agonists of the NFkB signaling pathway (AID 1159509); settings: NFkB-bla ME-180 cells, beta-lactamase FRET ratio, 5 h; series mostly up to 61 µM
Records with an inconclusive call do not appear. Activity calls are given as the source filed them. Calls follow the shape of the dose curve; as a rule, active = well fitted curve in the direction sought with a large enough effect in the signal ratio in the repeat runs (not every such curve was filed as active); inconclusive = weak or mixed curves, or a change in a side signal; inactive = no such curve, though single readings can be large or run the other way; the % refers to the signal ratio.
VALUE KIND: activation

The examples below pair each entry with its known result.
Give reported activation value for NS(=O)(=O)c1cc(C(=O)O)cc(N2CCCC2)c1Oc1ccccc1
inactive

Indicate its recorded activation; the compound in question is Cc1sccc1Br
inactive

For the compound O=C1CCCC(=O)C1 , report activation.
inactive

Report activation, nothing else, for this compound: O=C(CCCN1CCC(O)(c2cccc(C(F)(F)F)c2)CC1)c1ccc(F)cc1
inactive

Kindly indicate its recorded activation. Item: Cc1cccn2c(=O)c(-c3nnn[nH]3)cnc12
inactive

Please report activation for the following compound: O=c1cc(CO)occ1O
inactive

Could you please provide reported activation for COC(=O)C1=C(C)NC(C)=C(C(=O)OC)C1c1ccccc1[N+](=O)[O-] ? Thanks!
inactive

Dear colleague, please send me the reported activation for C=CCS(=O)(=O)O when you can.
inactive

Please indicate activation recorded for CCC=O
inactive

Supply measured activation of CCCCC/C=C\CCC=O in your reply.
inactive

More entries:
Specify reported activation for the compound shown: CC(C)c1cc2c(cc1S(=O)(=O)O)[C@@]1(C)CCC[C@@](C)(C(=O)O)[C@@H]1CC2
inactive

Kindly indicate its recorded activation. Item: COC(=O)c1ccc(C)cc1C1=NC(C)(C(C)C)C(=O)N1 (centres undefined)
inactive

Supply activation value. Item: CCOC(C)(C)C
inactive

Identify the reported activation for the following entry. NCCc1cnc[nH]1
inactive

* * *

Experiment: qHTS assay to test for compound auto fluorescence at 460 nm (blue) in HEK293 cells (AID 720678)
Conditions: blue autofluorescence 405/460 nm; series mostly up to 46 µM
Text: National Center for Advancing Translational Sciences [NCATS] NIH Chemical Genomics Center [NCGC] U.S. Environmental Protection Agency [EPA] National Institutes of Environmental Health Sciences [NIEHS] National Toxicology Program [NTP] U.S. Food and Drug Administration [FDA] Compound auto fluorescence often interferes with screening of the compound library against various biological targets and signaling pathways. Some of these compounds may have fluorophoric properties. […]
Activity calls are given as the source filed them. The call rests on the fitted dose curve; in most records, active means well fitted curve in the direction sought with a large enough effect in the repeat runs; inconclusive means weak or mixed curves; inactive means flat fitted curve, though single readings scatter.
VALUE KIND: fluorescence, % of triamterene

Solved entries:
Read off the recorded fluorescence, % of triamterene for O=C1CCCCCCCCCCCN1
inactive

Report fluorescence, % of triamterene, nothing else, for this compound: CCCN(CCC)CCc1cccc2c1CC(=O)N2
inactive

Find the measured fluorescence, % of triamterene of CCn1ccnc1CC1COc2ccccc2O1 (centres undefined) and report it.
inactive

Please indicate fluorescence, % of triamterene recorded for CCCCCCOC(=O)CCCCC(=O)OCCCCCC
inactive

Give the reported value of fluorescence, % of triamterene for this record: NS(=O)(=O)c1ccc(C(=O)O)cc1
inactive

Quote fluorescence, % of triamterene reported for CC/C=C\CCOC(C)=O please.
inactive

Give the measured fluorescence, % of triamterene for CC(C)=CCCC(C)CC(=O)O (centres undefined)
inactive

Return fluorescence, % of triamterene (reported value) for this compound: CC(=O)OC/C=C(\C)CC/C=C(\C)CCC=C(C)C
inactive

---
For the compound Cc1cc(O)cc2c1O[C@](C)(CCC[C@H](C)CCC[C@H](C)CCCC(C)C)CC2 , give its reported fluorescence, % of triamterene.
inactive

Please list fluorescence, % of triamterene recorded for the compound N[C@H]1CN(c2c(F)cc3c(=O)c(C(=O)O)cn(C4C[C@H]4F)c3c2Cl)CC12CC2 (some centres undefined)
inactive

Identify fluorescence, % of triamterene associated with the compound CN1CC(=O)NC1=N
inactive

Dear colleague, please send me the reported fluorescence, % of triamterene for CO[Si](CCCOCC1CO1)(OC)OC (centres undefined) when you can.
inactive

Dear colleague, please send me the reported fluorescence, % of triamterene for COc1ccccc1OCC(O)CN1CCN(CC(=O)Nc2c(C)cccc2C)CC1 (centres undefined) when you can.
inactive

Give recorded fluorescence, % of triamterene. CC(C)CCCC(C)N (centres undefined)
inactive

Assign fluorescence, % of triamterene to the following record: Cc1cc2c(cc1S(N)(=O)=O)S(=O)(=O)CCC2
inactive

Input OCCCC1CCCCC1 , output reported fluorescence, % of triamterene.
inactive

Given the compound CN(C)CCCNCCCN(C)C , write its reported fluorescence, % of triamterene.
inactive

// fetch fluorescence, % of triamterene given entry CCO[Si](CCC1CCC2OC2C1)(OCC)OCC (centres undefined)
inactive

// Input: O=C(O)c1ccccc1OP(=O)(O)O . Output its fluorescence, % of triamterene only.
inactive

Given C=CCOCC(CC)(CO)COCC=C , respond with its fluorescence, % of triamterene.
inactive

Kindly indicate its recorded fluorescence, % of triamterene. Item: Nc1cc(=O)[nH]c(N)n1
inactive

Recall and state the measured fluorescence, % of triamterene for CC(C)(C)c1ccc(O)c(O)c1 .
inactive

Item CCOC(C)(C)C : provide fluorescence, % of triamterene
inactive

Answer with the recorded fluorescence, % of triamterene of COC(=O)c1cc(C(=O)OC)cc(S(=O)(=O)O)c1 only.
inactive

* * *

test: qHTS assay for identifying genotoxic compounds that show differential cytotoxicity against isogenic chicken DT40 cell lines with known DNA damage response pathways - Rad54/Ku70 mutant cell line (AID 743015); details: DT40 Rad54/Ku70 mutant viability, CellTiter-Glo, 40 h; series mostly up to 66.8 µM; also: nearly all actives have a fitted effect of over 60% in size
Inconclusive results are not listed. Calls of active or inactive are those of the source. The call rests on the fitted dose curve; in most records, active means well fitted cell-killing curve with a large enough effect in the repeat runs; inconclusive means weak or mixed curves; inactive means no such curve, though single readings can be large or run the other way.
Hi! Could you answer with just one of these? active, inactive

Worked examples follow.
Status in this test for Cn1c(N)c(N=O)c(=O)n(C)c1=O ?
inactive

Could you kindly confirm the outcome this assay logged for CN(C)CCCSc1ccccc1NC(=O)/C=C/c1ccccc1 ?
active

Record lookup: outcome of this test for C=COCC1CCC(CO)CC1 (centres undefined) ?
inactive

# lookup: test call for CC(=O)CC(C)C
inactive

Which outcome was entered for the compound Cc1c(O)cccc1O in this test?
inactive

Others:
I would be grateful if you could indicate the recorded call for COC(=O)[C@@H](N)Cc1ccc(O)c(O)c1 .
active

Hi, do you know how NS(=O)(=O)c1cc2c(cc1Cl)NC(C1CC3C=CC1C3)NS2(=O)=O (centres undefined) came out in this test?
inactive

Recorded test outcome, item OC[C@]1(O)OC[C@@H](O)[C@H](O)[C@@H]1O
inactive

Record request — test call for CC(C)c1cc2c(cc1S(=O)(=O)O)[C@@]1(C)CCC[C@@](C)(C(=O)O)[C@@H]1CC2
inactive

Please indicate how the test categorized CCSC(=O)N(CC(C)C)CC(C)C .
inactive

Record request — test call for CCC(=O)OC(C)c1ccccc1 (centres undefined)
inactive

* * *

assay: qHTS RealTime-Glo MT Cell Viability Assay in HepG2 cells - 24 hour (AID 1224867); settings: RealTime-Glo luminescence; series mostly up to 76.8 µM; also: nearly all actives have a fitted effect of over 50% in size
Results filed as inconclusive are left out. Calls of active or inactive are those of the source. Calls come from the whole dose curve; as a rule, active = well fitted cell-killing curve with a large enough effect in the repeat runs; inconclusive = weak or mixed curves; inactive = flat fitted curve, though single readings scatter.
VALUE KIND: activity change, negative = cytotoxicity

Some compounds with known activity change, negative = cytotoxicity results, for comparison:
Give the value of activity change, negative = cytotoxicity reported for the following: O=C[C@H](O)[C@@H](O)[C@H](O)[C@H](O)CO
inactive

Note activity change, negative = cytotoxicity for the compound shown: CCn1nc(C(=O)O)c(=O)c2cc3c(cc21)OCO3
inactive

Using the record for FC(F)OC(Cl)C(F)(F)F (stereo not drawn) , state its measured activity change, negative = cytotoxicity.
inactive

Tell me measured activity change, negative = cytotoxicity for Cc1nc2c([nH]1)c(=O)n(C)c(=O)n2Cc1ccco1 please.
inactive

Quick one: give measured activity change, negative = cytotoxicity for CCOC(=O)c1cccc(N)c1
inactive

---
Quote activity change, negative = cytotoxicity reported for CC(C)(CC(=O)O)C(=O)O please.
inactive

Given the compound O=C(O)Cc1ccc(CCNS(=O)(=O)c2ccc(Cl)cc2)cc1 , write its reported activity change, negative = cytotoxicity.
inactive

Given the compound CC(C)=CCCC(C)CC(=O)O (stereo not drawn) , write its reported activity change, negative = cytotoxicity.
inactive

* * *

target: Cytochrome P450 1A2 (Homo sapiens) (UniProt P05177); assay: Cytochrome P450 Family 1 Subfamily A Member 2 (CYP1A2) small molecule antagonists: luciferase reporter qHTS assay (AID 1671199); settings: P450-Glo CYP1A2 enzyme, luciferin luminescence, 1 h; series mostly up to 53 µM; also: nearly all actives have a fitted effect of over 50% in size
Sequence (P05177 whole entry, looked up): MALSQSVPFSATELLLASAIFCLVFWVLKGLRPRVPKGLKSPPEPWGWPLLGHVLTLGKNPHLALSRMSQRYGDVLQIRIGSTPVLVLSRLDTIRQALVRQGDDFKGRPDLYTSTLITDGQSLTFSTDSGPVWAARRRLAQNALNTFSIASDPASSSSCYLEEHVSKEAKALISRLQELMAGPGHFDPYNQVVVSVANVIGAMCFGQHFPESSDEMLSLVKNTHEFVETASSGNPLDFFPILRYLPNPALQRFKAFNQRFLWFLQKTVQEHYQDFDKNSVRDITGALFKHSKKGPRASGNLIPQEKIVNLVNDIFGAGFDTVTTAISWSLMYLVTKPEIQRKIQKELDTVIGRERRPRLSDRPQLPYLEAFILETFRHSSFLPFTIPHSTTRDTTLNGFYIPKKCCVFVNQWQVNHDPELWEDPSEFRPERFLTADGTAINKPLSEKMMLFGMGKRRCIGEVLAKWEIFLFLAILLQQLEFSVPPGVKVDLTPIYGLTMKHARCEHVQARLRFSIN
Inconclusive results are not listed. Calls of active or inactive are those of the source. Calls follow the shape of the dose curve; as a rule, active = well fitted inhibition curve with a large enough effect in the repeat runs; inconclusive = weak or mixed curves; inactive = no such curve, though single readings can be large or run the other way.
Lab note: assign the record to one of true = active, false = inactive

Would you mind telling me which call this test gave COc1c(N2C[C@@H]3CCCN[C@@H]3C2)c(F)cc2c(=O)c(C(=O)O)cn(C3CC3)c12 ?
false

More entries:
Hi team, can someone confirm the assay call for N=c1nc(N2CCCCC2)cc(N)n1O ?
false

// param item: Cc1c(NC(C)C)c(=O)n(-c2ccccc2)n1C ; yields the recorded call
true

What call does the record list for C1OCOCO1 ?
false

What is the recorded call for this compound in the test? C=COCC1CCC(CO)CC1 (stereo not drawn)
false

Query: recorded result category for O=C(CCCN1CCC(O)(c2cccc(C(F)(F)F)c2)CC1)c1ccc(F)cc1 in this test
false

Outcome logged for CC(=O)N(CC(O)CO)c1c(I)c(C(=O)NCCO)c(I)c(C(=O)NCC(O)CO)c1I (stereo not drawn) in this assay:
false
